Some molecules, each annotated with its measured Off target effect (% cell death) at 500 nM.
tested on: U937 cells; test: Counter screen: cell viability without TSQ cocktail (off target effect); type: cell-based; details: U937 without TSQ cocktail, compound at 500 nM
Respond numerically; units are % and should not be typed.

{"columns": ["molecule", "u", "observed-result"],
 "data": [
  ["CN(c1ccc(NC(=O)Nc2ccc(OC(F)(F)F)cc2)cc1)c1ccnc(Nc2ccc(F)c(S(N)(=O)=O)c2)n1 [Compound 18]", "%", 27]
]}

Ask: For Cc1ccc(Nc2nccc(N(C)c3ccc(NC(=O)Nc4ccc(OC(F)(F)F)cc4)cc3)n2)cc1C(=O)N(C)C [Compound 19] , write its Off target effect (% cell death) at 500 nM.
Result: 28

Ask: For CN(C(=O)Nc1ccc(OC(F)(F)F)cc1)c1ccc(N(C)c2ccnc(Nc3cccc(S(N)(=O)=O)c3)n2)cc1 [Compound 12] , write its Off target effect (% cell death) at 500 nM.
Result: 36

Ask: For CN(c1ccc(NC(=O)Nc2ccc(OC(F)(F)F)cc2)cc1)c1ccnc(Nc2cccc(CS(N)(=O)=O)c2)n1 [Compound 13] , write its Off target effect (% cell death) at 500 nM.
Result: 24

Ask: For CN(c1ccc(NC(=O)Nc2cc(C(F)(F)F)ccc2F)cc1)c1ccnc(Nc2cccc(S(N)(=O)=O)c2)n1 [Compound 3] , write its Off target effect (% cell death) at 500 nM.
Result: 40

Ask: For COCCNS(=O)(=O)c1cccc(Nc2nccc(N(C)c3ccc(NC(=O)Nc4ccc(OC(F)(F)F)cc4)cc3)n2)c1 [Compound 23] , write its Off target effect (% cell death) at 500 nM.
Result: 21

Ask: For CN(c1ccc(CC(=O)Nc2ccc(OC(F)(F)F)cc2)cc1)c1ccnc(Nc2cccc(S(N)(=O)=O)c2)n1 [Compound 17] , write its Off target effect (% cell death) at 500 nM.
Result: 22

Ask: For NS(=O)(=O)c1cccc(Nc2nccc(N(c3ccc(NC(=O)Nc4ccc(OC(F)(F)F)cc4)cc3)C3CC3)n2)c1 [Compound 24] , write its Off target effect (% cell death) at 500 nM.
Result: 20

Ask: For CN(c1ccc(NC(=O)Nc2ccc(OC(F)(F)F)cc2)cc1)c1ccnc(Nc2cccc(CS(C)(=O)=O)c2)n1 [Compound 27] , write its Off target effect (% cell death) at 500 nM.
Result: 24

Ask: For CN(c1ccc(NC(=O)Nc2ccccc2)cc1)c1ccnc(Nc2cccc(S(N)(=O)=O)c2)n1 [Compound 2] , write its Off target effect (% cell death) at 500 nM.
Result: 24

====

target: human MLKL(190-471) pseudokinase domain (Homo sapiens, UniProt Q8NB16); assay: Surface Plasmon Resonance (SPR) binding, human MLKL; settings: read-out: Affinity (Kd) as determined by SPR
Sequence (Q8NB16 190-471): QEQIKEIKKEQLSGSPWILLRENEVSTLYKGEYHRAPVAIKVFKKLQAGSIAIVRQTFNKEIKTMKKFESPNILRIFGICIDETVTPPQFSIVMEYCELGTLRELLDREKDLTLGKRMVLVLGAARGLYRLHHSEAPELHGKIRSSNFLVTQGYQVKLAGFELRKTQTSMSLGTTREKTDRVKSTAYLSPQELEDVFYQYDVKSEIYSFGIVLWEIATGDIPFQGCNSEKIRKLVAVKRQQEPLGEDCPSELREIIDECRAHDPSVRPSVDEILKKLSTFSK
Some molecules, each annotated with its measured pKd.
The meaning of pKd here: minus log10 of the concentration in molar units.

{"columns": ["smi", "experimental-target", "observed-result"],
 "data": [
  ["CN(c1ccc(NC(=O)Nc2ccc(OC(F)(F)F)cc2)cc1)c1ccnc(Nc2ccc(S(N)(=O)=O)cc2)n1", "human MLKL(190-471) pseudokinase domain (Homo sapiens, UniProt Q8NB16)", 5.33]
]}

Ask: For CN(c1ccc(NC(=O)Nc2ccccc2)cc1)c1ccnc(Nc2cccc(S(N)(=O)=O)c2)n1 , write its pKd.
Result: 5.89
